Sourced from patent US20080113383A1

# reported Activity (%)*; entries follow
molecular target: EGLN3; assay: cell-based or functional assay
Where no end group is shown, it is not given here.
Reply numerically in %, unit not repeated.

Record excerpt, results attached:
DTDLDLEASAPYIPADDDFQ [DTDLDLEASApYIPADDDFQ] ... 25.1
DTDLDIEAVAPYIPADDDFQ [DTDLDIEAVApYIPADDDFQ] ... 61.3
DTDLDVEAVAPYIPADDDFQ (not fully specified; printed as DTDLDVEAVApYIPADDDFQ) [DTDLDVEAVApYIPADDDFQ] ... 49
DTDLDLEANAPYIPADDDFQ [DTDLDLEANApYIPADDDFQ] ... 42.5
DTDLDTEAYAPYIPADDDFQ (not fully specified; printed as DTDLDTEAYApYIPADDDFQ) [DTDLDTEAYApYIPADDDFQ] ... 36

Consider the additional binder presented here.
Enquiry: Quick one: give measured Activity (%)* for DTDLDVEATAPYIPADDDFQ (not fully specified; printed as DTDLDVEATApYIPADDDFQ) [DTDLDVEATApYIPADDDFQ]
Return: 24
